Target: 6His-Tev-LRRK2 (1326-2527) (Homo sapiens, UniProt Q5S007)
Construct: A LRRK2 cDNA encoding residues 1326-2527 was received from Dundee University; made in house; host or cells: Spodoptera frugiperda (Sf9) insect cells, baculovirus (pFB-HTb)
Sequence (Q5S007 1326-2527): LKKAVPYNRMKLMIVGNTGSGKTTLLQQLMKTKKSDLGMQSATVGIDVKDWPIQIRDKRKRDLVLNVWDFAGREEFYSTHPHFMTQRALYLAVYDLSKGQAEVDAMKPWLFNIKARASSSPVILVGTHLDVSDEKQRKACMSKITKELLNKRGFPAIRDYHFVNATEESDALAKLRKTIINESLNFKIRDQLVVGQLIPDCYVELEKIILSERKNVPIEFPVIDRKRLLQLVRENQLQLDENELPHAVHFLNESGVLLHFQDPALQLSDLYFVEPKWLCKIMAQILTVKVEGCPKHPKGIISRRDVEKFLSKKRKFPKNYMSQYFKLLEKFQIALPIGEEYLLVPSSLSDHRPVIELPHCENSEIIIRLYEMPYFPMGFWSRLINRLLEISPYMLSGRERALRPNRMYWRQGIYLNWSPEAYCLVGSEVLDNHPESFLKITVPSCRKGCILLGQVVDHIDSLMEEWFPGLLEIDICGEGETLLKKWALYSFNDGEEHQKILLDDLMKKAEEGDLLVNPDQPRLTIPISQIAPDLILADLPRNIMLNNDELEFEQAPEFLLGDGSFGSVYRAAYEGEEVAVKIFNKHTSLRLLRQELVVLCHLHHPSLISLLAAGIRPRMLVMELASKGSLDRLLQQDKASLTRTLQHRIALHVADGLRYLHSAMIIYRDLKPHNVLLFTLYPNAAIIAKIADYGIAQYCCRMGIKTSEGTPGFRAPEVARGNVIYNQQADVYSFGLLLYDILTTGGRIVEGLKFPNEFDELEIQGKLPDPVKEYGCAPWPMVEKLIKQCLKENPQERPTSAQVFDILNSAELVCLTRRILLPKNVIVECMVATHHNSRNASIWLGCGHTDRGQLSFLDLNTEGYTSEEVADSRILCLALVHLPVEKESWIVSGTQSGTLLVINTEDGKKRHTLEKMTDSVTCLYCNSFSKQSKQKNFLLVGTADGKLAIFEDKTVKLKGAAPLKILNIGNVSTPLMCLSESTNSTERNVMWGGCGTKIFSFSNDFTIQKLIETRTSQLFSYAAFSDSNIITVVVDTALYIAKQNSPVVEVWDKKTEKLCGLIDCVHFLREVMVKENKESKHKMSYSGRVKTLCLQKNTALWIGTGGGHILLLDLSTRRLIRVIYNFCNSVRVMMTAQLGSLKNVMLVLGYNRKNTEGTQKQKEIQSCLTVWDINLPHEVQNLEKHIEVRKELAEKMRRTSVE
Assay: LRRK2 AlphaScreen desensitised protein substrate assay
Assay type: biochemical
Conditions: mean pIC50 of multiple test results; GST-PS-Moesin (400-577) substrate, 2 mM ATP; read-out: LRRK2 alphascreen desensitized protein substrate assay (pIC50) (converted)
Note to self: IC50 under 200 nM means Satisfied, ties and anything higher get Not satisfied.

COMPOUND	SYSTEM_UNDER_TEST	GROUP_LABEL
O=C(Nc1cccnc1)c1cc(C(F)(F)F)c(C(=O)N2CCOCC2)cc1OCc1ccccc1 [Example 37]	6His-Tev-LRRK2 (1326-2527) (Homo sapiens, UniProt Q5S007)	Not satisfied
Cn1cc(-c2cc(C(=O)Nc3cccnc3)c(OCc3ccccc3)cc2CN2CCOCC2)cn1 [Example 4]	6His-Tev-LRRK2 (1326-2527) (Homo sapiens, UniProt Q5S007)	Satisfied
Cc1nocc1NC(=O)c1cc(-c2cnn(C)c2)c(CN2CCOCC2)cc1OCc1ccc(F)cc1 [Example 18]	6His-Tev-LRRK2 (1326-2527) (Homo sapiens, UniProt Q5S007)	Not satisfied
Cc1cc(OCc2ccccc2)c(C(=O)Nc2cccnc2)cc1-c1cnn(C)c1 [Example 7]	6His-Tev-LRRK2 (1326-2527) (Homo sapiens, UniProt Q5S007)	Satisfied
Cn1cc(-c2cc(C(=O)Nc3cccc(F)c3)c(OCc3ccc(F)cc3)cc2C(=O)N2CCOCC2)cn1 [Example 47]	6His-Tev-LRRK2 (1326-2527) (Homo sapiens, UniProt Q5S007)	Satisfied
O=C(Nc1ccnnc1)c1cc(Cl)c(C(=O)N2CCC(F)(F)C2)cc1OCc1ccccc1 [Example 42]	6His-Tev-LRRK2 (1326-2527) (Homo sapiens, UniProt Q5S007)	Not satisfied
O=C(Nc1cccnc1)c1cc(Cl)c(C(=O)N2CCOCC2)cc1OCc1ccccc1 [Example 44]	6His-Tev-LRRK2 (1326-2527) (Homo sapiens, UniProt Q5S007)	Satisfied
Cn1cc(-c2cc(OCc3ccc(F)cc3)c(C(=O)Nc3cccnc3)cc2CN2CCOCC2)cn1 [Example 13]	6His-Tev-LRRK2 (1326-2527) (Homo sapiens, UniProt Q5S007)	Not satisfied
Cc1cc(C(=O)Nc2cccnc2)c(OCc2ccccc2)cc1Br [Example 9]	6His-Tev-LRRK2 (1326-2527) (Homo sapiens, UniProt Q5S007)	Satisfied
Cc1cc(C(=O)Nc2ccnnc2)c(OCc2ccccc2)cc1Br [Example 10]	6His-Tev-LRRK2 (1326-2527) (Homo sapiens, UniProt Q5S007)	Satisfied
O=C(Nc1cccnc1)c1cc(C(F)(F)F)c(C(=O)N2CCCCC2)cc1OCc1ccccc1 [Example 39]	6His-Tev-LRRK2 (1326-2527) (Homo sapiens, UniProt Q5S007)	Not satisfied
O=C(Nc1cccnc1)c1cc(Br)c(CN2CCOCC2)cc1OCc1ccccc1 [Example 2]	6His-Tev-LRRK2 (1326-2527) (Homo sapiens, UniProt Q5S007)	Not satisfied
